# System: SF-539 CNS
# test.details: NCI tumour cell line growth inhibition, 48 h
value.type: TGI

| molecule | value.type | result |
| --- | --- | --- |
| CC1=NN(C(=O)CC(=O)Nc2ccc(Cl)cc2)C(=O)C1N=Nc1ccc(S(=O)(=O)c2ccc(N=NC3C(=O)N(C(=O)CC(=O)Nc4ccc(Cl)cc4)N=C3C)cc2)cc1 (stereo not drawn) | TGI | > 100 µM |
| O=C1c2ccccc2C(=O)c2sc(Nc3ccc(Cl)cc3)nc21 | TGI | 6.33 µM |
| C/C(=C1/N=C(c2ccccc2)OC1=O)c1ccccc1 | TGI | > 100 µM |

---

# Tested on: SF-295 CNS
# test.details: NCI tumour cell line growth inhibition, 48 h; in the data active = GI50 below about 0.43 µM; inactive = the rest
Classes used: 1 (yes) for active, 0 (no) for inactive

| compound | label |
| --- | --- |
| C[n+]1cc2cc3c(cc2c2ccccc21)OCO3 | 0 (no) |
| CCOc1ccc2c(c1)C(=O)c1c-2n(CCCN)c(=O)c2cc([N+](=O)[O-])ccc12 | 1 (yes) |
| Cn1ccc2c3c(=O)cc[nH]c3ccc21 | 0 (no) |
| COc1cc(O)c2c(=O)c(OC)c(-c3ccc(OC)c(OC)c3)oc2c1.[Zn+2] | 0 (no) |
| CC1=C/C(O)CC(=O)Cc2nc(co2)C(=O)N2CCC=C2C(=O)OC(C(C)C)C(C)/C=C\C(=O)NC/C=C\1 (centres undefined) | 0 (no) |
| NC(=NCCO)c1ccc(N2CCCN(c3ccc(C(N)=NCCO)cc3)CC2)cc1 | 0 (no) |
| CCOc1ccc(NC(=O)c2cc3ccccc3cc2O)cc1 | 0 (no) |
| NC(=S)N/N=C/c1ccc(OC(=O)COc2ccccc2)cn1 | 0 (no) |
| C/C=C/C=C/CCCCCCCCCCCCC[C@]1(OC)C=CC(CC(=O)OC)OO1 (some centres undefined) | 0 (no) |

---

Entries and their measured TGI follow.
# Test system: NCI-H23 lung
# test.details: NCI tumour cell line growth inhibition, 48 h

| molecule | TGI |
| --- | --- |
| O=C1O/C(=C\C=C\CO)C=C1/C=C/CO | 41.9 µM |
| C=C1C(=O)OC2/C=C(\C)CC/C=C(\C)CC(OC(=O)/C(=C/CO)CO)[C@@H]12 (stereo partly drawn) | 29.4 µM |
| CC(=O)N1N=C(c2ccc(Nc3nc(Nc4ccc(F)cc4)nc(Nc4ccc(Cl)cc4)n3)cc2)CC1c1ccc(N(C)C)cc1 (stereo not drawn) | 16.1 µM |

---

# Test system: OVCAR-4 ovarian
# test.details: NCI tumour cell line growth inhibition, 48 h
value.type: TGI (µM)

| compound | value.type | measure.unit | inequality.operator | result.number |
| --- | --- | --- | --- | --- |
| CC(=O)[O][Hg][CH2]C1(C)COC(C)([CH2][Hg][O]C(C)=O)CO1 (stereo unspecified) | TGI | µM | = | 74.4 |
| N#CSCC1CC(O)(c2ccccc2)CC(c2ccc(Cl)cc2)O1 (stereo unspecified) | TGI | µM | = | 15.3 |
| CN(C)c1cccc(/C=C(\C#N)c2ccccc2)c1 | TGI | µM | = | 98 |
| CNC(=O)/C(=C/c1ccc(OC)cc1)c1cc(OC)c(OC)c(OC)c1 | TGI | µM | = | 99.7 |
| O=S1(=O)c2ccccc2-c2nccc3ccnc1c23 | TGI | µM | > | 100 |
| O=c1cc(-c2ccc3ccccc3c2)[nH]c2ncccc12 | TGI | µM | > | 100 |

---

# Test system: SK-MEL-28 melanoma
# test.details: NCI tumour cell line growth inhibition, 48 h
Entries and their measured TGI follow.
value.type: TGI

| molecule | value.type | result |
| --- | --- | --- |
| CCOC(=O)C1=C(c2ccccc2)NC(c2ccccc2)=C(C(=O)OCC)c2c1c(=O)cc[nH]c2=O | TGI | > 100 µM |
| COC(=O)/C=C/c1ccc2c(c1)[C@H](C(=O)OC)[C@@H](c1ccc(O)cc1)O2 | TGI | > 100 µM |
| CCOc1ccc(NC(=O)c2cc3ccccc3cc2O)cc1 | TGI | > 100 µM |
| Cc1ccccc1C1CC(=O)CC(c2ccccc2C)C12C(=O)NC(=S)NC2=O (centres undefined) | TGI | 44.5 µM |

---

# Tested on: DU-145 prostate
# test.details: NCI tumour cell line growth inhibition, 48 h
Entries and their measured TGI follow.

| compound | TGI |
| --- | --- |
| C=C1C(=O)O[C@H]2[C@H]1CC/C(COC(=O)C(=O)c1c[nH]c3ccc(Cl)cc13)=C\CC[C@@]1(C)O[C@@H]21 | 4.13 µM |
| COc1cccc(N2C(=O)C3c4[nH]c5ccc(C)cc5c4C4CCC(C)CC4C3C2=O)c1 (centres undefined) | > 100 µM |
| CCCC(=O)O[C@]1(C)CC[C@@H]2[C@H]3[C@@H]1[C@@H]1C/C(C)=C\CC[C@](C)(OC(=O)[C@@H]2C)[C@H]3O1 | > 100 µM |
| CC(=O)[C@]12OC(=O)C3=C1[C@H](CC[C@@H]3C)[C@@H](C)C[C@H]2C=C(C)C | 15.4 µM |
| Cc1cccc(/C=C2/C(=O)Nc3ccccc32)n1 | 32.9 µM |
| COc1cc(OC)c2nc(C)c3c(c2c1)OCC3 | > 100 µM |
| Cc1ncc([N+](=O)[O-])n1CCNC(=O)Cn1ccnc1[N+](=O)[O-] | > 100 µM |
| O=C(O)c1nnsc1-c1csnn1 | > 100 µM |
| COc1cc2c(c(OC)c1OC)C(=O)c1c-2n(CCCN=[N+]=[N-])c(=O)c2cc([N+](=O)[O-])ccc12 | > 100 µM |
| COC(=O)c1ccc(NC(N)=NCC(C)(C)COc2ccc(C(F)(F)F)cc2)nc1 | 3.2 µM |
| N#CCCN(CCCN(C(=O)Nc1ccc(NC(=O)N(CCCN(CCC#N)C(N)=O)c2ccccc2)cc1)c1ccccc1)C(N)=O | > 100 µM |
| O=C1OC(C2Cc3ccc4c(c3C2=O)CCCC4)c2ccccc21 (centres undefined) | > 100 µM |
| CN(C)c1cccc(/C=C(\C#N)c2ccccc2)c1 | 33.5 µM |
| O=C1/C(=C/c2ccc(OC(=O)c3ccc(Cl)cc3)cc2)CCC/C1=C\c1ccc(OC(=O)c2ccc(Cl)cc2)cc1 | > 100 µM |

---

# System: A498 renal
# test.details: NCI tumour cell line growth inhibition, 48 h
Entries and their measured TGI follow.
value.type: TGI

| compound | result |
| --- | --- |
| CCOC(=O)CNC(=O)CNC(=O)CNC(=O)CNNc1c(OCc2ccccc2)c(=O)c1=O | > 100 µM |
| CCOc1ccc(NC(=O)c2cc3ccccc3cc2O)cc1 | > 100 µM |
| O=C(O)c1cc2cc(O)ccc2[nH]1 | > 100 µM |
| Cc1ccc(/C=C2\CCCCCC2=O)cc1 | > 100 µM |
| O=c1[nH]cc(COCC(O)CO)c(=O)[nH]1 (stereo not drawn) | > 100 µM |
| Cc1ccc(S(=O)(=O)OI(O)CC(F)(F)F)cc1 | > 100 µM |
| COc1ccc(OC2OC(CO)C(O)C(O)C2O)cc1 (stereo not drawn) | > 100 µM |
| CC(=O)c1c(C)cc2cccc(OC3OC(CO)C(O)C(O)C3O)c2c1O (stereo not drawn) (tested in a mixture with another compound) | > 100 µM |
| N=C(N)SCCN1CCCCC1 | > 100 µM |
| Cc1cccc(C)c1NC(=O)CCCC(=O)C(C#N)c1ccc(Cl)cc1 (stereo not drawn) | > 100 µM |
| N#CCCN(CCCN(C(=O)Nc1ccc(NC(=O)N(CCCN(CCC#N)C(N)=O)c2ccccc2)cc1)c1ccccc1)C(N)=O | > 100 µM |
| O=C1Nc2ccccc2/C1=N/N1C(=O)/C(=C/c2ccccc2S)N=C1c1ccccc1 | > 100 µM |
| NCCn1cnc2nc(NC(=O)c3ccccc3)[nH]c(=O)c21 | > 100 µM |
| Cc1ncc([N+](=O)[O-])n1CCNC(=O)Cn1ccnc1[N+](=O)[O-] | > 100 µM |
| Cc1ccccc1NC(=O)C(=O)CC(=O)C1CCOC1=O (stereo not drawn) | > 100 µM |
| C/C(=C(/C)c1cc[n+](C)cc1)c1cc[n+](C)cc1 | > 75 µM |
| CSC(=NC#N)S/C=C/C(=O)c1cccc2ccccc12 | > 100 µM |
| COC(=O)c1ccc(NC(N)=NCC(C)(C)COc2ccc(C(F)(F)F)cc2)nc1 | 5.82 µM |
| CN(C)c1cccc(/C=C(\C#N)c2ccccc2)c1 | 35.4 µM |
| CCOC(=O)Nc1ccc(C(=O)/C=C/c2ccccc2)cc1 | 72.6 µM |
| COC(=O)C1Cc2c([nH]c3ccccc23)-c2[nH]c3ccccc3c2CC(NC(C)=O)C(=O)NCC(=O)NCC(=O)N1 (stereo not drawn) | > 100 µM |
| C=C1C(=O)O[C@H]2[C@H]1CC/C(COC(=O)C(=O)c1c[nH]c3ccc(Cl)cc13)=C\CC[C@@]1(C)O[C@@H]21 | 5.54 µM |
| C[n+]1cc2cc3c(cc2c2ccccc21)OCO3 | 8.57 µM |
| CC(C)N(C(=O)C12C3(C(=O)C(C)(C)C)C4C5(C#N)C3C1(C(=O)C(C)(C)C)C5C42C(=O)C(C)(C)C)C(C)C (stereo not drawn) | > 100 µM |
| COc1ccc2c(c1)C(=O)c1c-2n(CCCN=[N+]=[N-])c(=O)c2cc(N)ccc12 | > 100 µM |
| CCOC(=O)N1CCc2cc(OC)c(OC)cc2/C1=C/c1ccc(OC)c(OC)c1 | > 100 µM |
| CN(C)CCC(/C=C/c1ccccc1)=N\Nc1ccc(Cl)cc1 | 21.8 µM |
| CC(=O)OC1CC2(O)C(CCC3(C)C(c4ccc(=O)oc4)CCC32O)C2(C)CCC(OC3OC(CO)C(O)C(O)C3O)C=C12 (stereo not drawn) | 0.287 µM |
| O=C1O/C(=C(/Cl)c2c3ccccc3cc3ccccc23)c2ccccc21 | 80.2 µM |
| N#CCN1CCN(CC#N)CCN(CC#N)CCN(CC#N)CC1 | > 100 µM |
| O=C1C(CO)=C[C@@H](O)[C@H]2O[C@@H]12 | > 100 µM |
| COC(=O)/C=C1/OC(c2ccc(C)cc2C)=CC1=O | 42.3 µM |
| COC(=O)C1=CO[C@@H](OC2OC(CO)C(O)C(O)C2O)[C@@H]2[C@H](C)[C@@H](O)[C@@H](O)[C@]12O (stereo partly drawn) | > 100 µM |
